# TGI annotations
Tested on: NCI-H460 lung
Test: NCI tumour cell line growth inhibition, 48 h
Readout kind: TGI

* c1cncc(C2ONC3=NCCN32)c1 (stereo not given) | > 100 µM
* C[n+]1c2ccccc2c(C(=O)Nc2ccc(S(=O)(=O)Nc3ncccn3)cc2)c2ccccc21 | > 100 µM
* C=C(Cn1c2ccccc2c(=O)c2ccccc21)c1ccc(C(=O)Nc2ccccc2N)cc1 | > 100 µM
* Cc1cc(C)nc(NS(=O)(=O)c2ccc(Nc3c4ccccc4nc4ccc(C(=O)Nc5ccc(S(=O)(=O)N=C(N)N)cc5)cc34)cc2)n1 | > 100 µM
* C=CCN=C(N/N=C/c1ccc([N+](=O)[O-])o1)NS(=O)(=O)c1cc(C(=O)Nc2ccccc2)c(Cl)cc1SCC(N)=O | > 100 µM
* COc1ccc(/C=C\c2cc(OC)c(OC)c(OC)c2)c(NS(=O)(=O)c2ccc(C(C)(C)C)cc2)c1O | 11 µM
* CSc1nc(C)c2c(n1)N(c1ccc(Cl)cc1)CC2 | > 100 µM
* C=CCNC1=C2C[C@@H](C)C[C@@H](OC)[C@H](OC(=O)CCN(C)C)[C@H](C)/C=C(\C)[C@@H](OC(N)=O)[C@H](OC)/C=C\C=C(/C)C(=O)NC(=CC1=O)C2=O | 16.1 µM
* C[C@]12CCC3=NCCN3C1=CC[C@@H]1[C@@H]2CC[C@@]2(C)[C@H]1CC[C@]2(C)O | > 100 µM
* CCOC(=O)c1c(-c2ccccc2)c(C)cn1C | > 10 µM
* COc1ccc(C23OCC(Cc4cc(OC)c(OC)cc42)C3CO)cc1OC (stereo not given) | > 100 µM
* COC(=O)C1CCC(=O)N1/C(C)=N/NC(=O)Nc1ccc(Cl)c(Cl)c1 (stereo not given) | > 100 µM
* O=C(O)/C=C/c1ccncc1 | > 100 µM
* C=CCN1C(=O)CC(=O)N(NC2=NNC3(C(=O)N2)c2ccccc2-c2ccccc23)C1=S | > 100 µM
* CCCCCCCc1ccc(-c2nnc(N=Nc3ccc(OCCCCC)cc3)s2)s1 | > 100 µM
* CCOc1ccccc1NC(=O)C1=C(C)NC(C)=C(C(=O)Nc2ccccc2OCC)C1c1ccc([N+](=O)[O-])cc1 | > 100 µM
* COc1cc2c(cc1OCCCOc1ccc(-c3cc4ccccc4c4ccccc34)cc1)N=C[C@@H]1CCCN1C2=O | 2.21 µM
* O=CC1=CCC2c3[nH]c4ccccc4c3CCN2C1 (stereo not given) | > 396 µM
* CCOC(=O)c1cc2c3c(cc(OC)c2[nH]1)N(C(=O)OCC)CC3 | > 100 µM
* C#Cc1cccc(NC(=O)C2CCCN(C(=O)CCl)C2)c1 (stereo not given) | > 82.5 µM
* C(=C\c1c2oc(-c3ccccc3)cc(-c3ccccc3)c-2c2ccccc12)/C=C1\c2ccccc2-c2c(-c3ccccc3)cc(-c3ccccc3)[o+]c21 | > 100 µM
* CCCCCCCCCCCCC1N=C(N)NC2(CCCO2)C1C(=O)OC (stereo not given) | 8.23 µM
* NC(N)=NCCCC(NC(=O)c1c2ccccc2nc2ccccc12)C(=O)O (stereo not given) | > 100 µM
* Cc1ccccc1Nc1nc2ccccc2nc1NS(=O)(=O)c1ccccc1 | > 100 µM
* Cc1ccc(-n2cc(-c3ccc(Cl)cc3)c3c(=N)n(N)cnc32)cc1 | 22.2 µM
* Clc1ccc(C2=NCON=C2c2ccc(Cl)cc2)cc1 | 40.6 µM
* CCN1CCN(c2nc(NNC(=O)c3ccccc3)nc(N3CCN(C(c4ccccc4)c4ccccc4)CC3)n2)CC1 | 4.63 µM
* N#Cc1c(N)nc(Sc2ccccc2N)c(C#N)c1-c1ccccc1 | 50.6 µM
* Cc1ccnc(Nc2ccc([N+](=O)[O-])c(NCCN3CCOCC3)n2)c1 | > 100 µM
* CCOC(=O)c1cn(CC)c2ccc3c(c2c1=O)S(=O)(=O)C=C3 | > 100 µM

###

System: SK-MEL-2 melanoma
Experiment: NCI tumour cell line growth inhibition, 48 h
# TGI annotations
Readout kind: TGI

* COC(=O)c1ccc2[nH]c(O)c(C(=Nc3ccc(N(C)C(=O)CN4CCN(C)CC4)cc3)c3ccccc3)c2c1 | 3.54 µM
* Cn1ccnc1C(=O)/C=C/c1ccc(C(=O)Nc2c(F)c(F)c(F)c(F)c2F)cc1 | 5.6 µM
* O=C(/C=C(\[O-])c1ccccc1)CCCCCCC(=O)/C=C(\[O-])c1ccccc1.O=C(/C=C(\[O-])c1ccccc1)CCCCCCC(=O)/C=C(\[O-])c1ccccc1.O=C(/C=C(\[O-])c1ccccc1)CCCCCCC(=O)/C=C(\[O-])c1ccccc1.[Nd+3].[Nd+3] | > 50 µM
* CCN(CC)CCOc1ccc2c(C)c(C(=O)OC)oc2c1C(=O)/C=C/c1ccc(OC)cc1 | > 23.2 µM
* Cc1nc2c(Br)cc(Br)cc2c(=O)n1-c1ccccc1NC1OCC(O)C(O)C1O (configuration not stated) | > 100 µM
* CCCCCCCCCCCCC1N=C(N)NC2(CCCO2)C1C(=O)OC (configuration not stated) | 20.9 µM
* CC(=O)NN(c1ccccc1)C1CCN(c2ccccc2)N1C(C)=O (configuration not stated) | > 10 µM

###

Tested on: OVCAR-5 ovarian
Assay: NCI tumour cell line growth inhibition, 48 h
# TGI annotations
Readout kind: TGI

• COc1ccc(/C=C\c2cc(OC)c(OC)c(OC)c2)c(NS(=O)(=O)c2ccc(C(C)(C)C)cc2)c1O = 22.3 µM
• Nc1ncnc2c1nc(Cl)n2C1OC(CO)C(O)C1O (stereo not given) = 98.6 µM
• CNCc1cccc2c1OCCOCCOCCC(C)S(=O)(=O)c1ccc(cc1)-c1cnc(N)c(n1)C(=O)N2 (stereo not given) = 11.4 µM
• COc1cc(/C=C2/Oc3c(OC)cccc3C2=O)ccc1O = > 100 µM
• NC(N)=NCCCC(NC(=O)c1c2ccccc2nc2ccccc12)C(=O)O (stereo not given) = > 100 µM
• CC(=O)C(C(C)=O)[C@H]1OC(C)(C)O[C@H]1[C@H]1COC(C)(C)O1 = > 100 µM
• COc1cccc(CCCNC(=O)Cc2ccccc2CO)c1 = > 100 µM
• O=c1c2cc(I)ccc2nc(-c2cccs2)n1O = > 100 µM
• CC(=O)O[C@H]1C(=O)[C@@]2(C)[C@H]([C@H](OC(=O)c3ccco3)[C@]3(O)C[C@H](OC(=O)[C@H](O)[C@@H](NC(=O)c4ccccc4)c4ccccc4)C(C)=C1C3(C)C)[C@]1(OC(C)=O)CO[C@@H]1C[C@@H]2O = > 25 µM
• CCOC(=O)C1CCC(=O)N1C(=O)c1ccc(Cl)cc1 (stereo not given) = > 100 µM

###

System: HOP-92 NSCLC
Assay: NCI tumour cell line growth inhibition, 48 h
# TGI annotations
Readout kind: TGI

- COc1ccc2c(c1)[n+](=O)c(C(C)=O)c(C)n2[O-]: > 100 µM
- Cc1ccc(S(=O)(=O)N2CCC(C(=O)O)(c3ccccc3)CC2)cc1: > 100 µM
- COC(=O)C(=O)C(C(=O)C(=O)Nc1ccc(C)c(C)c1)c1nc2ccc([N+](=O)[O-])cc2[nH]c1=O (stereo not given): > 100 µM
- Oc1ccc(SCc2cc(O)ccc2O)cc1: > 47.2 µM
- C/C(CC(=O)Nc1cccc([N+](=O)[O-])c1)=N\NC(=O)C[n+]1ccccc1: > 100 µM

###

Test system: M14 melanoma
Test: NCI tumour cell line growth inhibition, 48 h
# TGI annotations
Readout kind: TGI

* [Cl-].[Gd+3].[O-]/N=C(\c1ccccc1)c1ccccn1.[O-]/N=C(\c1ccccc1)c1ccccn1.[O-]/N=C(\c1ccccc1)c1ccccn1 | > 100 µM
* NC(Cc1ccccc1CP(=O)(O)O)C(=O)O (stereo unspecified) | > 100 µM
* CN(C)c1ccc(C2CC(C)(O)Oc3cc4c(cc32)OCO4)cc1 (stereo unspecified) | > 100 µM
* CC(C)(CN1CCCCC1)C(=O)CC(SCCS(=O)(=O)O)c1ccc(Cl)cc1 (stereo unspecified) | 9.19 µM
* C#Cc1cccc(NC(=O)C2CCCN(C(=O)CCl)C2)c1 (stereo unspecified) | > 82.5 µM
* CSc1nc(C)c2c(n1)N(c1ccc(Cl)cc1)CC2 | > 100 µM
* N#CC(NNC(=O)c1ccccc1O)c1c(O)ccc2ccccc12 (stereo unspecified) | 30 µM
* COC1OC(C(=O)O)C2OC(C)(C)OC12 (stereo unspecified) | > 100 µM
* Cc1nc(Cc2n[nH]c(C)n2)n[nH]1 | > 100 µM
* COc1cc2c(cc1OC)C(=O)N(c1ccc(OCCN3CCCC3)cc1)C2=O | > 100 µM
* CC(=O)NN(c1ccccc1)C1CCN(c2ccccc2)N1C(C)=O (stereo unspecified) | > 10 µM
* OCC#Cc1ccccc1C#Cc1ccc(C#Cc2ccccc2)cc1 | 43.9 µM
* Cc1cc2c(cc1Cl)Sc1n[nH]c(=O)n1S2(=O)=O | > 100 µM
* CCN1CCN(c2nc(NNC(=O)c3ccccc3)nc(N3CCN(C(c4ccccc4)c4ccccc4)CC3)n2)CC1 | 3.56 µM
* CCN(CC)CCNc1ccc([N+](=O)[O-])c2sc3cc(Cl)ccc3c(=O)c12 | > 100 µM
* Cc1ccc(S(=O)(=O)N2CCC(C(=O)O)(c3ccccc3)CC2)cc1 | > 100 µM
